Below: a set of entries, each annotated with reported inhibition.
# TESTED_ON: EGFR (UniProt P00533)
# Sequence (P00533 whole entry, looked up): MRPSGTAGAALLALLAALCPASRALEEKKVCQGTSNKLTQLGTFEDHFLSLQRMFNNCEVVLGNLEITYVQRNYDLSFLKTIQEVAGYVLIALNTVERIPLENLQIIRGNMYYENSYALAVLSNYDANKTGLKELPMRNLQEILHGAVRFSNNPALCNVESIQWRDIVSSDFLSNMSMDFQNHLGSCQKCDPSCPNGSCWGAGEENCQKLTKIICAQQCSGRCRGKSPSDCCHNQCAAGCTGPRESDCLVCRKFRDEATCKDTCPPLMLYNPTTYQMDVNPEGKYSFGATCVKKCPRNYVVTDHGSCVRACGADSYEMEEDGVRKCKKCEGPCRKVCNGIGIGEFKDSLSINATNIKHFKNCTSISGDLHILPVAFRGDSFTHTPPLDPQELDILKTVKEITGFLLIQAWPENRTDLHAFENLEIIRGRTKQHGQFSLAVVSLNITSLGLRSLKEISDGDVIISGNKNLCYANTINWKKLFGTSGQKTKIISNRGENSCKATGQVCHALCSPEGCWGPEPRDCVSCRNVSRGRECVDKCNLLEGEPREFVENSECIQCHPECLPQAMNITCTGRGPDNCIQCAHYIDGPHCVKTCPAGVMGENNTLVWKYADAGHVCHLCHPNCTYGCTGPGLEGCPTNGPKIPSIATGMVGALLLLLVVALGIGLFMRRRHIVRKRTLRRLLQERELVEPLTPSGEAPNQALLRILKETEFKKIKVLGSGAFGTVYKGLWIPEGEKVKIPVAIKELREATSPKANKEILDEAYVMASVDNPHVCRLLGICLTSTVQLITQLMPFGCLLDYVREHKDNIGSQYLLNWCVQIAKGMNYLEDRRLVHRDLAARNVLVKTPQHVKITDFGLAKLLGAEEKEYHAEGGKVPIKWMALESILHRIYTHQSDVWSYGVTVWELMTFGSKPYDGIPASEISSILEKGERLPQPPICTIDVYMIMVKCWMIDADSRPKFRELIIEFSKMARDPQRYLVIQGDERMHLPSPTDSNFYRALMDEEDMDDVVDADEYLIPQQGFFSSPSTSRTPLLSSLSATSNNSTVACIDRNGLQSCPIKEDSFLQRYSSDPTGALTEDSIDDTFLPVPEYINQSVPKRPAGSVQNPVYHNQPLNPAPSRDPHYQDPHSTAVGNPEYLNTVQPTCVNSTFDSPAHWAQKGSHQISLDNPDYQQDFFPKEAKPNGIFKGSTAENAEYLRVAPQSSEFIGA
# STUDY_CONDITIONS: concentration not given here

COMPOUND: C=CC(=O)Nc1ccc(OC)c(C(=O)Nc2cccc(C(O)c3ccccc3)c2)c1 (centres undefined)
TESTED_ON: EGFR (UniProt P00533)
UNIT_ABBREV: %
inhibition: 5.84
//
COMPOUND: CCC(=O)Nc1ccc(O)c(C(=O)Nc2cccc(C(=O)N(CC)CC)c2)c1
TESTED_ON: EGFR (UniProt P00533)
UNIT_ABBREV: %
inhibition: 46.6
//
COMPOUND: CCC(=O)Nc1ccc(O)c(C(=O)Nc2ccc(Oc3ccccc3)cc2)c1
TESTED_ON: EGFR (UniProt P00533)
UNIT_ABBREV: %
inhibition: 48.5
//
COMPOUND: C=CC(=O)Nc1ccc(OC)c(C(=O)Nc2cccc(Oc3ccccc3)c2)c1
TESTED_ON: EGFR (UniProt P00533)
UNIT_ABBREV: %
inhibition: 1.59

Source: the Kinase Knowledgebase extract (Sharma et al. 2016)
